- TESTED_SYSTEM: Serotonin 3 (5-HT3) receptor (Homo sapiens) (UniProt P46098+A5X5Y0+O95264+Q70Z44+Q8WXA8)
- ASSAY_EXPLANATION: Displacement of [3H]BRL-43694 from human recombinant 5-HT3 receptor expressed in CHO cells at 100 nM
- Type: cell-based
Calls of active or inactive are those of the source. The calls are words filed in the database; no cut-off is given here.
One label from this list, please: active, inactive

# count of solved cases: 3
c1ccc(COc2cccc(-c3cn([C@@H]4CN5CCC4CC5)nn3)c2)cc1 ... inactive
Fc1ccc(COc2cccc(-c3cn([C@@H]4CN5CCC4CC5)nn3)c2)cc1 ... active
Fc1cccc(-c2cn([C@@H]3CN4CCC3CC4)nn2)c1 ... inactive

Shift focus to the following entry.
**Query** Tell me the recorded outcome of this test for Fc1ccc(-c2cn([C@@H]3CN4CCC3CC4)nn2)cc1 .
**Result** inactive

###

- TESTED_SYSTEM: Neuronal acetylcholine receptor; alpha4/beta2 (Homo sapiens, UniProt P17787+P43681)
- Sequence (P17787 whole entry): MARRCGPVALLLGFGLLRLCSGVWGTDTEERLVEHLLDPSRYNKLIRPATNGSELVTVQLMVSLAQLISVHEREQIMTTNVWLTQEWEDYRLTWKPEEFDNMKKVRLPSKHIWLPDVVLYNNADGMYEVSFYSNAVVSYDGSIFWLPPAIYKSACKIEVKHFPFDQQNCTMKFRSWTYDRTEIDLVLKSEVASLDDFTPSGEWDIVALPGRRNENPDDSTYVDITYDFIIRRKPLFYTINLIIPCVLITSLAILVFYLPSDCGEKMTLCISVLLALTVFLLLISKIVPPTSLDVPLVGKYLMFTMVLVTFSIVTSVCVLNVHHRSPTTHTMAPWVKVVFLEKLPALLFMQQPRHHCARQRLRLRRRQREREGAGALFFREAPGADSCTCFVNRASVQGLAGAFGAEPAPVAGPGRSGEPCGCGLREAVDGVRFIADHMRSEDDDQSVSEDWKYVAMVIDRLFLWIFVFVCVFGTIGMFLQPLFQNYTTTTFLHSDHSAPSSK
- Sequence (P43681 whole entry): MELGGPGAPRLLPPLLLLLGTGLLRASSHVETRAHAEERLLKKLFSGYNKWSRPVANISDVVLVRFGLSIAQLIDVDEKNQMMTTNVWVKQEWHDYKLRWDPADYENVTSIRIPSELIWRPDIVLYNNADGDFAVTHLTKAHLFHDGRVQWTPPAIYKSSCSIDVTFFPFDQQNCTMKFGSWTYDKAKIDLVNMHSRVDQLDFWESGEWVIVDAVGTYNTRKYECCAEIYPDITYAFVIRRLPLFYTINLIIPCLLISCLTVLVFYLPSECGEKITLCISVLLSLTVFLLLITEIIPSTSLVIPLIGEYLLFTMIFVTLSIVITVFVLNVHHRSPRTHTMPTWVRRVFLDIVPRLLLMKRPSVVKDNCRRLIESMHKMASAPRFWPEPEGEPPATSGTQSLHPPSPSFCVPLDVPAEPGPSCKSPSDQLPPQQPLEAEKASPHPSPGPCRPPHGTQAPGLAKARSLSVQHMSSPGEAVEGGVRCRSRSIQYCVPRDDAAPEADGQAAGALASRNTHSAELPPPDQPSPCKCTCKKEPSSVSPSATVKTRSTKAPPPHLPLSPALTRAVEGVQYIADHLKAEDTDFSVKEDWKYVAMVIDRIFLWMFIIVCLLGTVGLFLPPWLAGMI
- ASSAY_EXPLANATION: Displacement of [3H] epibatidine from alpha4beta2 nAChR (unknown origin) expressed in HEK293 cells
- Assay type: cell-based
OBSERVATION_TYPE: pKi
In textbook form, pKi equals minus log to base ten of the concentration in mol/L.

**Query** Returns the measured pKi for the input compound. Input: FC(F)(F)c1ccc2c(c1)[C@@H]1CNC[C@H]2C1
**Result** 7.68

###

- TESTED_SYSTEM: Neuronal acetylcholine receptor subunit alpha-7 (Homo sapiens, UniProt P36544)
- Sequence (P36544 whole entry): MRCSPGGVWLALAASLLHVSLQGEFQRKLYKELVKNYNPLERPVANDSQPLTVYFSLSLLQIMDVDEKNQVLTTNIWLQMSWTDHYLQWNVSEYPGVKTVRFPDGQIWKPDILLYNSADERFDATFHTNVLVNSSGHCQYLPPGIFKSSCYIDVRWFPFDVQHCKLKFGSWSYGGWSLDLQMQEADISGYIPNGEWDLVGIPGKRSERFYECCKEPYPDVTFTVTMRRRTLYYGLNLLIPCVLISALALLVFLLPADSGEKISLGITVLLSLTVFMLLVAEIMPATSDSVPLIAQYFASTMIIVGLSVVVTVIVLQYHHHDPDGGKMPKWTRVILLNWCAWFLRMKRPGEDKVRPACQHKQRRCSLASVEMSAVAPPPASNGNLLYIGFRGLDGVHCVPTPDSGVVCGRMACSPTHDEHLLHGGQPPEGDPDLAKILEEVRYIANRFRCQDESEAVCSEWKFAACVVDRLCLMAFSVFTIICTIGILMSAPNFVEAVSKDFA
- ASSAY_EXPLANATION: Displacement of [3H]A-585539 from alpha7 nAChR in human cerebral cortex membranes after 75 mins by scintillation counting
- Format: cell membranes
OBSERVATION_TYPE: Ki (nM)
Use nM as the unit, but write only the number.

**Query** Please look up its Ki: c1cc2cc(-c3ccc(O[C@H]4CN5CCC4CC5)nn3)ccc2[nH]1
**Result** 0.22

###

- TESTED_SYSTEM: Neuronal acetylcholine receptor; alpha4/beta2 (Rattus norvegicus, UniProt P09483+P12390)
- Sequence (P09483 whole entry): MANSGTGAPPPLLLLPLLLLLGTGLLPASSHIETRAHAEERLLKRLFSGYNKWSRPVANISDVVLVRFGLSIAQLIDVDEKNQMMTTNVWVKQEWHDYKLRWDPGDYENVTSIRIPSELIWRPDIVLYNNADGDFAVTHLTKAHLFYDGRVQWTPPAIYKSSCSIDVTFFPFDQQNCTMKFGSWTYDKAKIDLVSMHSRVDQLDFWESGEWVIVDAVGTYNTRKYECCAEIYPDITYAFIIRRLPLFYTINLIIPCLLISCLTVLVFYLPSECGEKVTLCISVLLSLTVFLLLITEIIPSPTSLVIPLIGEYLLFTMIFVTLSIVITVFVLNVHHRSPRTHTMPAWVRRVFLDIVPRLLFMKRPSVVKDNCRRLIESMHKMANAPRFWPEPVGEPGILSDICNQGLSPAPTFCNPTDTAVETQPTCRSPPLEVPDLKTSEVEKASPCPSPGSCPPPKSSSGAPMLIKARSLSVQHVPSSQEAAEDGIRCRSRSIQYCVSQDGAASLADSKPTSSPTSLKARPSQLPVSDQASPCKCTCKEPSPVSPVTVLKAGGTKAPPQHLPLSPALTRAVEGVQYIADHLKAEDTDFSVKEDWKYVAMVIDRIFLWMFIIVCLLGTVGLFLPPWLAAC
- Sequence (P12390 whole entry): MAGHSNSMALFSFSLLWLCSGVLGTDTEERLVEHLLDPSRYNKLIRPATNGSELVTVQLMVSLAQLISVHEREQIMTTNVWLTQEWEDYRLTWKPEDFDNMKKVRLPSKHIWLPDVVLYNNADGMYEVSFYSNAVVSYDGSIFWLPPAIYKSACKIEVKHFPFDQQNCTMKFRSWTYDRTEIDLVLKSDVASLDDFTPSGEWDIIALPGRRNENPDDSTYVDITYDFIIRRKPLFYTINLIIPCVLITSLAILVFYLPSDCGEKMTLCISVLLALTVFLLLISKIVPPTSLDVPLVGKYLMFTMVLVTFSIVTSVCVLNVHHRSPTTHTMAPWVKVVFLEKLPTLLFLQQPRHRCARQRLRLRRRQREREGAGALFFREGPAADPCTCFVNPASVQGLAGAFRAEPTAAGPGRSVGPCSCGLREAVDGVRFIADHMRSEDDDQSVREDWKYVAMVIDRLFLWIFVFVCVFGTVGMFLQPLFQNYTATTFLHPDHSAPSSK
- ASSAY_EXPLANATION: Displacement of [3H]cytisine from alpha4beta2 nAChR in Sprague-Dawley rat brain membranes after 75 mins by scintillation counting
- Type: cell membranes
OBSERVATION_TYPE: Ki (µM)
// note: answer is a bare numeric in µM

**Query** State the recorded Ki for this entry: c1cc2cc(-c3ccc(O[C@H]4CN5CCC4CC5)nn3)ccc2[nH]1 [ABT-107]
**Result** 4

###

The following molecules are listed with their measured Ki values.
- TESTED_SYSTEM: Neuronal acetylcholine receptor; alpha4/beta2 (Homo sapiens, UniProt P17787+P43681)
- ASSAY_EXPLANATION: Displacement of [3H]epibatidine from human alpha4beta2 nAChR transfected in HEK293 cell membranes after 120 mins by liquid scintillation counting
Could you give the number and then its unit, please?

Example cases with answers are listed next.
c1ccc(COc2cccc(-c3cn([C@@H]4CN5CCC4CC5)nn3)c2)cc1 ... 414 nM
FCCOc1cccc(-c2cn([C@H]3CN4CCC3CC4)nn2)c1 ... 7050 nM
Oc1ccc(-c2cn([C@H]3CN4CCC3CC4)nn2)cc1 ... 7390 nM
Fc1ccc(COc2cccc(-c3cn(C4CN5CCC4CC5)nn3)c2)cc1 (racemic) ... 1010 nM
Fc1cccc(-c2cn([C@@H]3CN4CCC3CC4)nn2)c1 ... 519 nM
Fc1cccc(-c2cn([C@H]3CN4CCC3CC4)nn2)c1 ... 5200 nM
Fc1cccc(-c2cn(C3CN4CCC3CC4)nn2)c1 (racemic) ... 748 nM
Fc1ccc(COc2cccc(-c3cn([C@H]4CN5CCC4CC5)nn3)c2)cc1 ... 6390 nM
FCCOc1cccc(-c2cn(C3CN4CCC3CC4)nn2)c1 (racemic) ... 1960 nM
Fc1ccc(-c2cn(C3CN4CCC3CC4)nn2)cc1 (racemic) ... 449 nM

**Query** // map Fc1ccc(-c2cn([C@H]3CN4CCC3CC4)nn2)cc1 to recorded Ki (system: Neuronal acetylcholine receptor; alpha4/beta2 (Homo sapiens, UniProt P17787+P43681))
**Result** 10400 nM

**Query** Form field: Ki recorded for Oc1ccc(-c2cn([C@@H]3CN4CCC3CC4)nn2)cc1 with Neuronal acetylcholine receptor; alpha4/beta2 (Homo sapiens, UniProt P17787+P43681) (enter value)
**Result** 461 nM

**Query** Query Ki on Neuronal acetylcholine receptor; alpha4/beta2 (Homo sapiens, UniProt P17787+P43681) for Oc1ccc(-c2cn(C3CN4CCC3CC4)nn2)cc1 (racemic)
**Result** 627 nM

**Query** Reported Ki for Neuronal acetylcholine receptor; alpha4/beta2 (Homo sapiens, UniProt P17787+P43681), given FCCCOc1cccc(-c2cn([C@H]3CN4CCC3CC4)nn2)c1 ?
**Result** 9010 nM

**Query** Give Neuronal acetylcholine receptor; alpha4/beta2 (Homo sapiens, UniProt P17787+P43681) Ki for c1ccc(COc2cccc(-c3cn(C4CN5CCC4CC5)nn3)c2)cc1 (racemic)
**Result** 668 nM

**Query** What Ki appears in the records for this molecule with Neuronal acetylcholine receptor; alpha4/beta2 (Homo sapiens, UniProt P17787+P43681)? Fc1ccc(COc2cccc(-c3cn([C@@H]4CN5CCC4CC5)nn3)c2)cc1
**Result** 537 nM

**Query** Given the entry FCCCOc1cccc(-c2cn(C3CN4CCC3CC4)nn2)c1 (racemic) , what Ki was observed with Neuronal acetylcholine receptor; alpha4/beta2 (Homo sapiens, UniProt P17787+P43681)?
**Result** 3890 nM

**Query** Could you share what Ki was measured for Fc1ccc(-c2cn([C@@H]3CN4CCC3CC4)nn2)cc1 , tested on Neuronal acetylcholine receptor; alpha4/beta2 (Homo sapiens, UniProt P17787+P43681)?
**Result** 515 nM

**Query** # query: Ki | item c1ccc(COc2cccc(-c3cn([C@H]4CN5CCC4CC5)nn3)c2)cc1 | system: Neuronal acetylcholine receptor; alpha4/beta2 (Homo sapiens, UniProt P17787+P43681)
**Result** 5060 nM

**Query** Fill in the recorded Ki for this molecule, with Neuronal acetylcholine receptor; alpha4/beta2 (Homo sapiens, UniProt P17787+P43681) as test system: FCCCOc1cccc(-c2cn([C@@H]3CN4CCC3CC4)nn2)c1
**Result** 1980 nM

**Query** Notebook entry, Neuronal acetylcholine receptor; alpha4/beta2 (Homo sapiens, UniProt P17787+P43681) assay: Ki of FCCOc1cccc(-c2cn([C@@H]3CN4CCC3CC4)nn2)c1 = ?
**Result** 1260 nM

###

- TESTED_SYSTEM: Neuronal acetylcholine receptor; alpha4/beta2 (Homo sapiens, UniProt P17787+P43681)
- ASSAY_EXPLANATION: Displacement of [3H]-(+/-)-epibatidine from human recombinant alpha4beta2 nAChR expressed in HEKtsA201 cells after 1 hr by CNiFERs binding assay
- Assay type: cell-based
OBSERVATION_TYPE: Ki

**Query** Entry Oc1ccc(-c2cn(C3CN4CCC3CC4)nn2)cc1 (racemic) : reported Ki = ?
**Result** > 10 µM

###

- TESTED_SYSTEM: Neuronal acetylcholine receptor; alpha3/beta4 (Homo sapiens, UniProt P30926+P32297)
- Sequence (P30926 whole entry): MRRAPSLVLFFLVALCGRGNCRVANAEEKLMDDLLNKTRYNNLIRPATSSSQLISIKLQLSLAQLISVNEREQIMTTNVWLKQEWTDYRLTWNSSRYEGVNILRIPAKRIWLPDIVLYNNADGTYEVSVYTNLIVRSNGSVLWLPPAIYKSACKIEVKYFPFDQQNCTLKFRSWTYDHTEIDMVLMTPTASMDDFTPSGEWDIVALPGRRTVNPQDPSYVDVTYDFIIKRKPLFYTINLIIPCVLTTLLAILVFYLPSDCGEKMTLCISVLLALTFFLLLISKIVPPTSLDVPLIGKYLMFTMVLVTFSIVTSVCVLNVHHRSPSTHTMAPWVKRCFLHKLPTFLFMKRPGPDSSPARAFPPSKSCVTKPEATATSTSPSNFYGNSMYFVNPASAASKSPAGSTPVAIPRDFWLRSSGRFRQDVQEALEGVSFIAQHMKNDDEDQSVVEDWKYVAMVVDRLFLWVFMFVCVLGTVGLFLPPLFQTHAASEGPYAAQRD
- Sequence (P32297 whole entry): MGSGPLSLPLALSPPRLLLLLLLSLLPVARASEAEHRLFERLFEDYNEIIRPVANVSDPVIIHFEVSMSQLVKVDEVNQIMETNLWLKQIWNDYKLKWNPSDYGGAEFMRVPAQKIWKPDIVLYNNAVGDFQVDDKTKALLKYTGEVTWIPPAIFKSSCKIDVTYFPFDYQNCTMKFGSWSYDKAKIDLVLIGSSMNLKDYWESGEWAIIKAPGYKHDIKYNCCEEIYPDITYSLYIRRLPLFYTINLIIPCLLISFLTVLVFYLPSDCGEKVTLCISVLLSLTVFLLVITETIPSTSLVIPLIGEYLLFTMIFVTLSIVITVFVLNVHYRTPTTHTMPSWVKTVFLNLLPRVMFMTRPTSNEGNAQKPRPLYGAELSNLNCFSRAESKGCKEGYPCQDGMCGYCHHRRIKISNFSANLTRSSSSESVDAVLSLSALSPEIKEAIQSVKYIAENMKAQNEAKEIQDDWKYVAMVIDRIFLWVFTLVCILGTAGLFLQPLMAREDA
- ASSAY_EXPLANATION: Displacement of [3H]epibatidine from human alpha3beta4 nAChR transfected in HEK293 cell membranes after 120 mins by liquid scintillation counting
Consider the following molecules and their measured log10 of Ki readings.
Could you please treat all values as log10 of Ki in nM?

Consider the following illustrative entries.
FCCOc1cccc(-c2cn([C@@H]3CN4CCC3CC4)nn2)c1 ... 1.07
FCCCOc1cccc(-c2cn([C@@H]3CN4CCC3CC4)nn2)c1 ... 1.29
c1ccc(COc2cccc(-c3cn([C@H]4CN5CCC4CC5)nn3)c2)cc1 ... 2.80
c1ccc(COc2cccc(-c3cn([C@@H]4CN5CCC4CC5)nn3)c2)cc1 ... 0.82
Oc1ccc(-c2cn([C@@H]3CN4CCC3CC4)nn2)cc1 ... 0.39

Next up:
**Query** Please look up its log10 of Ki: Fc1ccc(-c2cn(C3CN4CCC3CC4)nn2)cc1 (racemic)
**Result** 0.93

###

Some compounds, each annotated with its measured Ki.
- TESTED_SYSTEM: Neuronal acetylcholine receptor; alpha3/beta4 (Homo sapiens, UniProt P30926+P32297)
- ASSAY_EXPLANATION: Displacement of [3H]epibatidine from human alpha3beta4 nAChR transfected in HEK293 cell membranes after 120 mins by liquid scintillation counting
Record the value in nM, omitting the unit from your answer.

**Query** I would be grateful if you could share the reported Ki for Oc1ccc(-c2cn([C@H]3CN4CCC3CC4)nn2)cc1 .
**Result** 138
